Cited source: ChEMBL document CHEMBL3397030

In this section, each of the compounds is paired with its reported inhibition of growth at 10 µM.
Assay: Growth inhibition of human HL60 cells at 10 uM after 48 hrs by MTT assay
Assay type: functional
Conditions: HL-60, 48 h, read-out: GI

compound | inhibition of growth at 10 µM
Cc1ccc(C(CC(=O)O)NC(=O)c2cc(C)oc2C)cc1 (centres undefined) | 5.85%
Clc1cccc(C(c2ccc3[nH]cnc3c2)n2ccnc2)c1 (centres undefined) [LIAROZOLE] | 15.4%
Cc1cc(C(=O)NC(CC(=O)O)c2ccc(Cl)cc2)c(C)o1 (centres undefined) | 10.3%
Cc1nn(-c2ccccc2)c(Cl)c1C(=O)NC(CC(=O)O)c1cccc(Br)c1 (centres undefined) | 6.16%

====

Measured Activity of individual entries
Tested on: HL-60
Test: Induction of cell differentiation of human HL60 cells at 10 uM in presence of 0.1 uM ATRA after 72 hrs by NBT dye based assay
Format: functional

compound | targetEntity | Activity
Cc1nn(-c2ccccc2)c(Cl)c1C(=O)NC(CC(=O)O)c1cccc(Br)c1 (centres undefined) | HL-60 | 48.51%
Cc1ccc(C(CC(=O)O)NC(=O)c2cc(C)oc2C)cc1 (centres undefined) | HL-60 | 42.62%
Cc1cc(C(=O)NC(CC(=O)O)c2ccc(Cl)cc2)c(C)o1 (centres undefined) | HL-60 | 46.61%
Clc1cccc(C(c2ccc3[nH]cnc3c2)n2ccnc2)c1 (centres undefined) | HL-60 | 46.71%
